Cited source for all entries: patent US20240343803A1

Biological target: T1, Fusion protein of extracellular domain of human TIGIT and His-tag (human TIGIT ECD-his) (human)
T1 chain: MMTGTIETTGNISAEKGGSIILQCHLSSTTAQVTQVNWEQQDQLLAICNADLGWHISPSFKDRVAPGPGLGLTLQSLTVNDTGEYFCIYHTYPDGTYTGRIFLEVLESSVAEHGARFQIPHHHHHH
Assay: BIAcore
measured_parameter: pKd
// field semantics: pKd = negative decimal log of concentration (mol/L)

Respond only with pKd recorded for TIGIT-070-H1L3 (antibody, V domains shown, Humanized anti-TIGIT antibody) VH: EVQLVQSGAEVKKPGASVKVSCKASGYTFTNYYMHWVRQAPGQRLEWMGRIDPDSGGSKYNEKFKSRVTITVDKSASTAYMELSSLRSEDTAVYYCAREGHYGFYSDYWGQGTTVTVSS VL: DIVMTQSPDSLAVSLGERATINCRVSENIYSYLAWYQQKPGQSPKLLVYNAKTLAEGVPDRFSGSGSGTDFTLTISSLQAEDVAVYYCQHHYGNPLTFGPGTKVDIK
10.14

Respond only with pKd recorded for TIGIT-CHI-070 (antibody, V domains shown, Human-mouse chimeric antibody) VH: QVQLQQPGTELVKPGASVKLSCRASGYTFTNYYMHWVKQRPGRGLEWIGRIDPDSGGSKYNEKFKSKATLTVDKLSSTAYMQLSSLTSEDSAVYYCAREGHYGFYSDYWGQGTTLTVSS VL: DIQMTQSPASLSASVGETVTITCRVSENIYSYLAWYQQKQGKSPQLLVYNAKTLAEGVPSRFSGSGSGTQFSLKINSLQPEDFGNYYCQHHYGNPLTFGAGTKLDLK
10.01

Respond only with pKd recorded for TIGIT-070-H2L1 (antibody, V domains shown, Humanized anti-TIGIT antibody) VH: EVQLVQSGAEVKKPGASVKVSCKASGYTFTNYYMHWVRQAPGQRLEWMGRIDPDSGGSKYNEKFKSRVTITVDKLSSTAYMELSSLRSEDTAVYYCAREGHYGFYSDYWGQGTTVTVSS VL: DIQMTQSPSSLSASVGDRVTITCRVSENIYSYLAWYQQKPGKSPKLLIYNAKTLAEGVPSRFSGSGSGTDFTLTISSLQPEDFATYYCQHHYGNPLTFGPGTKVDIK
10.09
